- test: In vitro for the inhibition of TNF alpha release by human peripheral blood monocytes (PBMs)
- Type: functional
pIC50: −log10 of the molar value.
Criterion: pIC50 meeting or surpassing 6. Met: True. Not met: False.

Solved entries (count: 3):
QUERY: Check if pIC50 >= 6 (inclusive). Item: COC(=O)c1ccc(C(CC(=O)NO)S(=O)(=O)c2ccc(OC)cc2)cc1 (stereo unspecified)
RESULT: False

QUERY: Similarly, COc1ccc(S(=O)(=O)C(CCCCc2ccccc2)CC(=O)NO)cc1 (stereo unspecified) ?
RESULT: False

QUERY: Similarly, COc1ccc(S(=O)(=O)C(CCc2ccccc2)CC(=O)NO)cc1 (stereo unspecified) ?
RESULT: False

Others:
QUERY: Check if pIC50 >= 6 (inclusive). Item: COc1ccc(S(=O)(=O)C(CC(=O)NO)c2ccc(-c3ccccc3)cc2)cc1 (stereo unspecified)
RESULT: False

QUERY: Similarly, COc1ccc(S(=O)(=O)C(CCCc2ccccc2)CC(=O)NO)cc1 (stereo unspecified) ?
RESULT: False

QUERY: Similarly, COc1ccc(S(=O)(=O)C(CC(=O)NO)CC(C)CC(C)(C)C)cc1 (stereo unspecified) ?
RESULT: False

QUERY: Similarly, COc1ccc(S(=O)(=O)C(COCc2ccccc2)CC(=O)NO)cc1 (stereo unspecified) ?
RESULT: False

QUERY: Similarly, COc1ccc(S(=O)(=O)C(CCCc2ccccc2)CC(=O)NO)cc1OC (stereo unspecified) ?
RESULT: True

QUERY: Similarly, COc1ccc(S(=O)(=O)C(CC(=O)NO)C(C)c2ccccc2)cc1 (stereo unspecified) ?
RESULT: False

QUERY: Similarly, COc1ccc(S(=O)(=O)C(CC(=O)NO)c2ccccc2)cc1 (stereo unspecified) ?
RESULT: False

QUERY: Similarly, CCCCC(CC(=O)NO)S(=O)(=O)c1ccc(OC)cc1 (stereo unspecified) ?
RESULT: False

QUERY: Similarly, CCOC(=O)C1CCCC(C(CC(=O)NO)S(=O)(=O)c2ccc(OC)cc2)C1 (stereo unspecified) ?
RESULT: False

QUERY: Similarly, CCCCC(CC)C(CC(=O)NO)S(=O)(=O)c1ccc(OC)cc1 (stereo unspecified) ?
RESULT: False

QUERY: Similarly, COc1ccc(C(=O)Nc2c(Cl)cncc2Cl)cc1OC1CCCC1 ?
RESULT: True

QUERY: Similarly, COc1ccc(S(=O)(=O)C(CC(=O)NO)C2CCCCC2)cc1 (stereo unspecified) ?
RESULT: False

QUERY: Similarly, COc1ccc(S(=O)(=O)C(CC(=O)NO)c2ccccc2)cc1OC (stereo unspecified) ?
RESULT: True

QUERY: Similarly, COc1ccc(S(=O)(=O)C(CC(=O)NO)c2ccc(OC(C)C)cc2)cc1 (stereo unspecified) ?
RESULT: False

QUERY: Similarly, COc1ccc(S(=O)(=O)C(CCC2CCCCC2)CC(=O)NO)cc1 (stereo unspecified) ?
RESULT: False
